- Experimental Protocol: method code SF-HPLC, from DOI: 10.1021/jf960844v
Would you please tag the item TRUE when its logP is 3 or above, and FALSE when it is below?

For orientation, consider the following solved cases.
query_smiles=COC(=O)c1c(Oc2nc(OC)cc(OC)n2)cccc1C(C)=NOCC=C(Cl)Cl label_class=TRUE
query_smiles=COC(=O)c1c(Oc2nc(OC)cc(OC)n2)cccc1C(C)=NO label_class=FALSE
query_smiles=CCCO/N=C(\C)c1cccc(Oc2nc(OC)cc(OC)n2)c1C(=O)OC label_class=TRUE
query_smiles=C=C(Br)CON=C(C)c1cccc(Oc2nc(OC)cc(OC)n2)c1C(=O)OC label_class=TRUE
query_smiles=CCCCON=C(C)c1cccc(Oc2nc(OC)cc(OC)n2)c1C(=O)OC label_class=TRUE

Query :: Quick check: does COC(=O)c1c(Oc2nc(OC)cc(OC)n2)cccc1C(C)=NOC(C)=O have logP greater than or equal to 3?
Result :: FALSE

Query :: Quick check: does CO/N=C(\C)c1cccc(Oc2nc(OC)cc(OC)n2)c1C(=O)OC have logP greater than or equal to 3?
Result :: FALSE
